Each entry below lists one item and its recorded polymerase ribozyme fitness (log ratio) value.
B1: TPR 5TU (parent)
chain: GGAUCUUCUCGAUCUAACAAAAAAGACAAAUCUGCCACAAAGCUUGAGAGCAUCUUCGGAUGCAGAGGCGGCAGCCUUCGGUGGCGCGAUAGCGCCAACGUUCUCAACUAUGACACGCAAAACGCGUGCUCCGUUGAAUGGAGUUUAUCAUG

Variants of: B1
ASSAY PROCEDURE: polymerase ribozyme fitness, log enrichment relative to wild type (log ratio); higher = more active; in vitro selection for triplet polymerase activity
Fewer inactive variants are shown than the library holds.
Write the number on its own, no unit after it.

Example entries and their recorded answers appear below.
RESIDUE CHANGE: C54U G80A
RESULT TYPE: polymerase ribozyme fitness (log ratio)
MEASURED NUMBER: -0.56
--
RESIDUE CHANGE: A91U G141A
RESULT TYPE: polymerase ribozyme fitness (log ratio)
MEASURED NUMBER: -4.05
--
RESIDUE CHANGE: G59U G94U C105U G124U G143C
RESULT TYPE: polymerase ribozyme fitness (log ratio)
MEASURED NUMBER: -3.65

Switching to the query record.
Endpoint output: polymerase ribozyme fitness (log ratio) of A47C G83A C99U A120U . Value? -3.03

Just for reference, the RNAGym collection of RNA variant scans (doi:10.1073/pnas.2313332121) is where these values come from.
